Source listed as ChEMBL document CHEMBL1138801.

tested on: KB 3-1; assay: Maximum intracellular vinblastine accumulation of the KB/MDR cells caused by the compound in 1 h; format: functional, Homo sapiens
Please go through the items and note down their Amax.
Answer format: numeric, pmol/10^6 cells implied, no suffix.

In: Note Amax for the compound shown: "CCCCCOc1cc2oc(-c3ccccc3)cc(=O)c2c(OC)c1OCCCCC"
Out: 3.2

In: Specify Amax for "O=c1cc(-c2ccccc2)oc2c(Br)c(O)c(O)c(O)c12" and stop.
Out: 1.8

In: Given "CC(=O)Oc1c(OCc2ccccc2)cc2oc(-c3ccccc3)cc(=O)c2c1OC(C)=O" , respond with its Amax.
Out: 3.4

In: Supply reported Amax belonging to this compound: "COc1cc2oc(-c3ccccc3)cc(=O)c2c(OC)c1OC(C)=O"
Out: 2.4

In: Provide one value: measured Amax of "CC(=O)Oc1c(O)cc2oc(-c3ccccc3)cc(=O)c2c1O"
Out: 3.1

In: Give the value of Amax reported for the following: "CCOc1c(O)cc2oc(-c3ccccc3)cc(=O)c2c1O"
Out: 3.5

In: State, in one line, measured Amax of O=c1cc(-c2ccccc2)oc2cc(O)c(O)c(O)c12 [BAICALEIN]
Out: 1.7

In: Look up Amax of "CCCOc1cc2oc(-c3ccccc3)cc(=O)c2c(O)c1OCCC" and report it.
Out: 5

In: Indicate its recorded Amax; the compound in question is "CC(=O)Oc1c(OC(C)=O)c(O)c2c(=O)cc(-c3ccccc3)oc2c1Br"
Out: 1.8

In: Please report Amax for the following compound: "CCCCCCOc1cc2oc(-c3ccccc3)cc(=O)c2c(OC)c1OCCCCCC"
Out: 1.1

In: Specify measured Amax for "CCCCCOc1cc2oc(-c3ccccc3)cc(=O)c2c(O)c1OCCCCC" .
Out: 1.1

In: Return Amax (reported value) for this compound: COc1cc2oc(-c3ccccc3)cc(=O)c2c(O)c1OC [MOSLOFLAVONE]
Out: 3.4

In: Give a short answer stating reported Amax for "O=c1cc(-c2ccccc2)oc2cc(O)c(OCc3ccccc3)c(O)c12" .
Out: 3.7

In: Answer with the recorded Amax of "CC(=O)Oc1cc2oc(-c3ccccc3)cc(=O)c2c(O)c1OCc1ccccc1" only.
Out: 2.8

In: Return value of Amax for input "CCCOc1c(OC)cc2oc(-c3ccccc3)cc(=O)c2c1OC" , no commentary.
Out: 4.6

In: For the compound "CCOc1cc2oc(-c3ccccc3)cc(=O)c2c(OC)c1OCC" , give its reported Amax.
Out: 4.2

In: For the compound "CCCCOc1cc2oc(-c3ccccc3)cc(=O)c2c(O)c1OCCCC" , give its measured Amax value.
Out: 3.2

In: Dear colleague, please send me the reported Amax for "CCCCOc1cc2oc(-c3ccccc3)cc(=O)c2c(OC)c1OCCCC" when you can.
Out: 4.4

In: Supply reported Amax belonging to this compound: "COc1c2c(cc3oc(-c4ccccc4)cc(=O)c13)OC(c1ccccc1)(c1ccccc1)O2"
Out: 1.9

In: // Input: "CC(=O)Oc1cc2oc(-c3ccccc3)cc(=O)c2c(OC(C)=O)c1OC(C)=O" . Output its Amax only.
Out: 3

In: Please look at this compound and report its Amax: "CCCOc1cc2oc(-c3ccccc3)cc(=O)c2c(OC)c1OCCC"
Out: 5.2

In: Give the measured Amax for "CC(=O)Oc1cc2oc(-c3ccccc3)cc(=O)c2c(O)c1OC(C)=O"
Out: 2.6
